Molecular target: T1, recombinant human CD123-Fc (human, UniProt P26951 19-305)
T1 construct: not shown: Fc part of CD123-Fc
T1 sequence: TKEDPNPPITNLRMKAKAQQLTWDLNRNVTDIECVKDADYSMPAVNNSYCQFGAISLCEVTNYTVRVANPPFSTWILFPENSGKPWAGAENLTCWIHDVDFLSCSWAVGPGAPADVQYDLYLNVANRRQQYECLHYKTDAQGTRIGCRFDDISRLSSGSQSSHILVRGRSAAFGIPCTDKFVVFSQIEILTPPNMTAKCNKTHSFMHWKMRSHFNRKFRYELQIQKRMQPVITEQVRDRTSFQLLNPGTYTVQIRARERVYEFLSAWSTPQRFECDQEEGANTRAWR
Experiment: phage ELISA, captured CD123-Fc
property: ELISA_avg (ratio A450 target/IgG1-Fc)
State the answer as a number, implicitly in ratio A450 target/IgG1-Fc.

Example cases with answers are listed next.
The measured ELISA_avg associated with SEQ ID NO: 396 (designed binder, D domain, on phage) MGSWVEFEERLEAIEERLFALGGSEAELAAFEKEIAAFESELQAYKGKGNPEVEWLRDDAANIRHWLQAYRHN reads 3.8

Just so you know, measured ELISA_avg for SEQ ID NO: 507 (designed binder, D domain, on phage) MGSWDFFKEELAEIKHYLEALGGSEAELAFFEFWIADFEQDLQEYKGKGNPEVEALRKEAAAIRDELQAYRHN came out at 3.7

---
The recorded ELISA_avg for entry SEQ ID NO: 336 (designed binder, D domain, on phage) MGSWEEFYDRLEAIYNRLGALGGSEAELAAFEKEIAAFESELQAYKGKGNPEVEVLREYAADIREMLQAYRHN equals 18.6

Memo: SEQ ID NO: 368 (designed binder, D domain, on phage) MGSWYEFYERLDAIEERLWALGGSEAELAAFEKEIAAFESELQAYKGKGNPEVEVLRDWAAWIREDLQAYRHN , reported ELISA_avg: 8.4

ELISA_avg reported for this binder SEQ ID NO: 381 (designed binder, D domain, on phage) MGSWFEFHDRLWAIDERLWALGGSEAELAAFEKEIAAFESELQAYKGKGNPEVEILREEAADIRLDLQAYRHN : 3.5
